Assay: Pharmacokinetics (clearance and volume of distribution)
Type: in vivo
Conditions: in vivo; noncompartmental; intravenous (IV) dosing; species not given; read-out: Vss (steady state volume of distribution)
parameter: Vd (L/kg)

Example entries begin here.
>  <compound>
Nc1ncc(-c2ccc(S(=O)(=O)C3CCCNC3)cc2)nc1-c1cc(-c2cccs2)no1 (centres unmarked)

>  <Vd, L/kg>
1

$$$$
>  <compound>
COc1ccccc1-c1nnc(-c2nc(-c3ccc(S(=O)(=O)C4CCCNC4)cc3)cnc2N)o1 (centres unmarked)

>  <Vd, L/kg>
2

$$$$

[1] Cc1ccsc1-c1nnc(-c2nc(-c3ccc(S(=O)(=O)C4CCNCC4)cc3)cnc2N)o1 [Compound A, reference compound]
[2] Cc1ccsc1-c1nnc(-c2nc(-c3ccc(S(=O)(=O)C4CCCNC4)cc3)cnc2N)o1 (centres unmarked)
[3] Nc1ncc(-c2ccc(S(=O)(=O)C3CCCNC3)cc2)nc1-c1cc(-c2ccccc2)no1 (centres unmarked)
Arrange the 3 entries by Vd so the values rise. Record the ranking as a list of labels in the requested order.
3, 2, 1
(3: 0.9 L/kg, 2: 3 L/kg, 1: 12.5 L/kg)
